These measurements were taken from the RNAGym collection of RNA variant scans (doi:10.7554/elife.80360).

Answer each item with its documented self-cleavage.
B1: HDV Ribozyme (parent)
chain: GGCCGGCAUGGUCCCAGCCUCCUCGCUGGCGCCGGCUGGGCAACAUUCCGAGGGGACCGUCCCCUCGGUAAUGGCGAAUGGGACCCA

Variants of: B1
Assay: self-cleavage, relative activity (ratio to wild type); higher = more cleavage; co-transcriptional
Output: the number by itself.

Q. Quick one: self-cleavage for U9A G17U ?
A. 0.383

Q. Quick one: self-cleavage for C22G A45G ?
A. 0

Q. Quick one: self-cleavage for C13G G40A ?
A. 0.119

Q. Quick one: self-cleavage for C33A A45C ?
A. 0.133

Q. Quick one: self-cleavage for G11C C85A ?
A. 1.18

Q. Quick one: self-cleavage for C13A G40U ?
A. 0.0326

Q. Quick one: self-cleavage for G35C A77C ?
A. 0.0898

Q. Quick one: self-cleavage for C22A C85G ?
A. 0.219

Q. Quick one: self-cleavage for C21U G74C ?
A. 0.158

Q. Quick one: self-cleavage for C26G C57G ?
A. 1.04

Q. Quick one: self-cleavage for G6C G28U ?
A. 0
